PROTOCOL_SUMMARY: in vitro
MEASUREMENT_CONDITIONS: human, hela cells, % viability
// reported viability at 28.5 h, 10 µM per item
The answer is to be given in %; state only the numeric part.

Look over these answered cases.
COc1cc(C2C3=C(COC3=O)Nc3[nH]nc(C)c32)ccc1O (centres unmarked): 98.5
N=c1n(CCN2CCCCC2)c2ccccc2n1CC(=O)c1cccs1 [CBK278244B]: 85
Cc1ccc(-n2c(SCC(=O)Nc3ccccc3F)nnc2-c2ccccc2O)c(C)c1: 88.6
N#CCSc1nc(-c2cccnc2)ccc1C(=O)O: 106

// moving on: another record for viability at 28.5 h, 10 µM
Q: Give its viability at 28.5 h, 10 µM value. Item: `O=C(O)c1cccc(NC(=O)c2ccc(COc3ccc(-c4ccccc4)cc3)o2)c1`
Result: 105

----------
PROTOCOL_SUMMARY: in vitro
MEASUREMENT_CONDITIONS: human, hela cells, % viability
RESULT_TYPE: viability at 28.5 h, 10 µM (%)
Give just the number in %; leave the unit off.

Known results for compounds:
O=C1C=CC2=C3Oc4c(ccc5cc(O)ccc45)C(c4ccccc4C(=O)O)C3C=CC2=C1 (stereo not drawn) [CBK278169N]: 82.8
CCc1noc(C)c1C(=O)N1CCC(NC)C1 (stereo not drawn) [CBK304299C]: 100
O=C(Cn1cccnc1=O)NC(c1ccc2c(c1)CCO2)C1CC(O)C1 (stereo not drawn): 75.3
COc1ccc(C(C)C)cc1-c1cnc2[nH]c(=O)n([C@H](C)c3ccccc3)c2n1: 87.3
O=C(Nc1ccc2[nH]ccc2c1)c1ccc(Cl)cc1: 98.4

Then there is this compound:
Q: Requested read-out: viability at 28.5 h, 10 µM. Entry: `O=C1C=C(OCc2ccccc2)CN1`
Result: 94.4

----------
PROTOCOL_SUMMARY: in vitro
MEASUREMENT_CONDITIONS: human, hela cells, % viability
We label by threshold. Values of viability at 28.5 h, 10 µM strictly beneath 90% are Criterion met. Values of 90% and up are Criterion not met.

COc1ccc(OCCCN)c(C(=O)N2CCc3nc[nH]c(=O)c3C2)c1: Criterion not met

Q: Item `CCN1CCN(C(=O)CN(c2ccccc2)S(=O)(=O)N(C)C)CC1` : viability at 28.5 h, 10 µM beneath 90%, strictly?
Result: Criterion not met

Q: What do you get for Cc1cc(C)n2ncc(C(=O)N3CCCC3c3ccc(F)cc3)c2n1 (stereo not shown) ?
Result: Criterion met

Q: Similarly, O=C(O)c1cccnc1SC1CC(=O)N(Cc2ccccc2)C1=O (stereo not shown) ?
Result: Criterion not met

Q: Here is the next compound: `Ic1ccc2c3ccc(I)cc3c3[nH]c(-c4ccccc4)nc3c2c1`
Result: Criterion not met

Q: Lookup `Cc1ccc(CN(CCCn2ccnc2)Cc2ccsc2)o1`
Result: Criterion not met

Q: Param item: `O=C(CN(C(=O)CNC(=O)c1cccs1)c1cccc(C(F)(F)F)c1)NC1CCCCC1`
Result: Criterion not met

----------
PROTOCOL_SUMMARY: in vitro
Parameters: Viability of infected HeLa host cells, resazurin conversion, bulk resorufin fluorescence relative to DMSO
MEASUREMENT_CONDITIONS: human, hela cells; bulk resorufin, mean of 3
Form field: viability at 28.5 h, 1 µM (one value per entry).
A complete answer gives the number and then names the unit.

Q: What does the record list as viability at 28.5 h, 1 µM for Cc1noc(-c2ccc3c(c2O)OCCO3)c1-c1ccc(Cl)cc1 [c20e] ?
Result: 86.1%

Q: Also check O=C1C(NCCO)=C(Nc2cccc(Cl)c2)C(=O)c2ccccc21 [c45e]
Result: 89.8%

Q: Consider next the molecule CC1=C(C)C(=NNC(N)=S)C(C)=C(C)C1=NNC(N)=S [c19e] in the same way.
Result: 103%

Q: Please give the result for Fc1cc(Br)c(CNCc2ncc[nH]2)c(N2CCCCC2)c1F [c31e] too.
Result: 97.6%

----------
Below is a list of entries, each paired with its recorded viability at 28.5 h, 10 µM value.
PROTOCOL_SUMMARY: in vitro
MEASUREMENT_CONDITIONS: human, hela cells, % viability
Record the result as number plus unit.

Answered examples (5):
CC(C)c1ccc(S(=O)(=O)NC(CC(=O)O)c2ccccc2)cc1 (stereo not drawn) [CBK266217]: 102%
CCC(NC1CCc2nc(COC)nn2C1)C1CCC1 (stereo not drawn) [CBK304739]: 87.8%
CCN(Cc1ccccc1)C(=O)Nc1ccc2[nH]ccc2c1 [CBK155229]: 95.2%
COc1cc(/C=N/NC(=O)c2cccc([N+](=O)[O-])c2)cc(OC)c1O [CBK262172]: 83.1%
CCCCOC(=O)c1ccc(NC(=O)Nc2ccc3ccc(Cl)nc3n2)cc1 [CBK115932]: 93.8%

Q: Request the reported viability at 28.5 h, 10 µM associated with Cc1noc(C)c1CN1CC2CCN(c3ccccc3)C2C1 (stereo not drawn) [CBK304847]
Result: 99.7%

----------
PROTOCOL_SUMMARY: in vitro
MEASUREMENT_CONDITIONS: human, hela cells, % viability
Parameter: viability at 28.5 h, 10 µM. Scope: all listed entries.
Give just the number in %; leave the unit off.

Previously resolved entries follow.
Cc1ccc(C)c2[nH]c(=O)c(CN(CCN3CCOCC3)Cc3nnnn3C3CCCCC3)cc12 [CBK108116]: 85.3
CC(=O)c1ccc(-c2nccnc2N[C@@H]2CCN(Cc3ccccc3)C2)s1 [CBK036981]: 104
O=S(=O)(Nc1nccnc1-c1cccs1)c1ccccc1Cl [CBK050775]: 94.9

Q: I would be grateful if you could share the reported viability at 28.5 h, 10 µM for CNS(=O)(=O)c1ccc(C(C)NC(=O)N2CCN3CCC2CC3)cc1 (centres unmarked) [CBK304765] .
Result: 92.2

Q: Param item: CCCCN(C)c1c(C)nc2c(Oc3nc4ccccc4s3)cccn12 [CBK147192]
Result: 93.4

Q: Next entry: Nc1cccc(-c2cc(C(=O)NCCc3cccnc3)cnc2-c2ccc(F)cc2)c1 [CBK038016]
Result: 102

----------
PROTOCOL_SUMMARY: in vitro
MEASUREMENT_CONDITIONS: human, hela cells, % viability
Listed below: viability at 28.5 h, 10 µM values for each entry.
Please give a number only; it is taken to be in %.

Worked cases, viability at 28.5 h, 10 µM given:
CCc1cc(CNC(=O)C(c2ccc(Cl)cc2)N(C)C)on1 (stereo not drawn): 96.6
CC(C)(CC(=O)O)CC(=O)Nc1cc(S(=O)(=O)N2CCCC2)ccc1Cl: 95.4
COc1cc(-c2cn3ccnc3c(N3CCN(c4ccncc4)CC3)n2)cc(OC)c1OC: 86.6
CC1CCc2c(sc(NC(=O)CCC(=O)O)c2C(=O)N2CCOCC2)C1 (stereo not drawn): 94.1
Cc1c(C(=O)NCc2ccncc2)nnn1-c1cccc(C(F)(F)F)c1: 88.7

Q: Value lookup for viability at 28.5 h, 10 µM; key = `CCn1c(CC2CCN(c3nc(C)cc(C)c3C#N)CC2)nn(C)c1=O`
Result: 111

Q: Then what about the molecule `Cn1nccc1NS(=O)(=O)c1ccc(-c2cc(C(F)(F)F)on2)s1` ?
Result: 97.4

Q: Now try `C#CCNS(=O)(=O)c1cccc(C(=O)NC2CCN(CCOC)CC2)c1` .
Result: 89

Q: Subsequent entry: `CCCN(C(=O)C1CC1)c1nc2c(s1)CCc1c-2cnn1C`
Result: 88.8

----------
PROTOCOL_SUMMARY: in vitro
MEASUREMENT_CONDITIONS: human, hela cells, % viability
RESULT_TYPE: viability at 28.5 h, 10 µM (%)
Please give a number only; it is taken to be in %.

Examples with answers:
COCOc1ccc(-c2nc(-c3cccs3)cnc2N)cc1 [CBK063977]: 101
Cc1cc(O)nc(SCCCSc2ccccc2)n1 [CBK267415]: 114
CCC(=O)NCCc1cc2ccc(C)cc2[nH]c1=O [CBK287434]: 92.4

Please turn your attention to the following entry.
Q: Which viability at 28.5 h, 10 µM value belongs to COc1ccc(CNC(=O)CN2CCCC(Cn3cncn3)C2)cc1 (stereo not drawn) [CBK305339] ?
Result: 88.9

----------
PROTOCOL_SUMMARY: in vitro
MEASUREMENT_CONDITIONS: human, hela cells, % viability
RESULT_TYPE: viability at 28.5 h, 10 µM (%)
Please reply with the bare figure in % and do not write the unit itself.

Worked cases, answers included:
COc1cc(F)ccc1-c1ccc2ccc(NC(=O)C(C)C)nc2n1: 87.1
O=C(O)/C(=N\c1cccc2ccccc12)c1ccccc1: 75.7
CCCn1c(Nc2nc3ccccc3n2C)nc2ccccc21: 85.7
COc1ccc(-c2noc(CN(C(C)=O)C3CCCCC3)n2)cc1: 111
CN1CCCN(CC(CC(=O)NCc2ccccc2)C(=O)O)CC1 (stereo not drawn): 86.6
CS(=O)(=O)c1ccc(-n2ncc(-c3ccc(C(F)(F)F)cc3)n2)cc1: 90

Q: Sample `COc1cc(S(=O)(=O)N2CCCN(S(=O)(=O)c3cc(OC)c(Cl)cc3OC)CC2)c(OC)cc1Cl` — what was its viability at 28.5 h, 10 µM?
Result: 99.4

Q: And the next one, `COc1ccc(Nc2nc(N)nc(CSc3nncn3C)n2)cc1` ?
Result: 88.9

Q: Here is the next compound: `O=C(Cc1ccccc1F)N1CCC(c2cc3cccnc3[nH]2)CC1`
Result: 104
